tested on: HOP-92; assay: NCI tumour cell line growth inhibition, 48 h
The source made the active and inactive calls. No stated cut-off is given here; in the data, active = GI50 up to about 1.1 µM and inactive = higher.
Outcome (select one): active, inactive

Task: Kindly provide the recorded test outcome for the following compound: C/C(=N\NC(=S)NC(C)(C)C)c1nc2cccnc2[nH]1
Result: inactive

Task: Kindly provide the recorded test outcome for the following compound: O=C(O)c1ccc(Nc2cnc3ccc(C(F)(F)F)cc3n2)cc1
Result: inactive

Task: Kindly provide the recorded test outcome for the following compound: CCOC(=O)c1c(SC(=O)/C=C/c2ccccc2)n(-c2ccccc2)c(=S)n(-c2ccccc2)c1=O
Result: inactive

Task: Kindly provide the recorded test outcome for the following compound: CC1(C)C(N2CCOCC2)CS1(=O)=O (stereo unspecified)
Result: inactive

Task: Kindly provide the recorded test outcome for the following compound: C/C(=N\NC(=S)NC(CCC(=O)O)C(=O)O)c1cnccn1 (stereo unspecified)
Result: inactive

Task: Kindly provide the recorded test outcome for the following compound: CN1OC(CO)CC12C1CC3CC(C1)CC2C3 (stereo unspecified)
Result: inactive

Task: Kindly provide the recorded test outcome for the following compound: CC1(C)COC(c2cccnc2/C=N/O)=N1
Result: inactive

Task: Kindly provide the recorded test outcome for the following compound: O=C(NCCCCCCNC(=O)c1cc(-c2ccccc2)nc2ccccc12)c1cc(-c2ccccc2)nc2ccccc12
Result: inactive

Task: Kindly provide the recorded test outcome for the following compound: CC(C)(CO)N1CCN(C(S)=Nc2ccccc2)CC1
Result: inactive

Task: Kindly provide the recorded test outcome for the following compound: O=C(NC12CC3CC(CC(C3)C1)C2)n1cnc2cncnc21
Result: inactive

Task: Kindly provide the recorded test outcome for the following compound: CC(=O)O[C@H]1C(=O)[C@@]2(C)[C@H]([C@H](OC(=O)c3cccc(C(F)(F)F)c3)[C@]3(O)C[C@H](OC(=O)[C@H](O)[C@@H](NC(=O)c4ccccc4)c4ccccc4)C(C)=C1C3(C)C)[C@]1(OC(C)=O)CO[C@@H]1C[C@@H]2O
Result: active

Task: Kindly provide the recorded test outcome for the following compound: COc1cc(CSc2ccc(O)cc2)cc(O)c1O
Result: inactive

Task: Kindly provide the recorded test outcome for the following compound: S=C1/C(=N/c2ccccc2)N(c2ccccc2)/C(=N\c2cccc[n+]2Cc2ccccc2)N1c1ccccc1
Result: inactive

Task: Kindly provide the recorded test outcome for the following compound: N#CC(C(=O)/C(=N\Nc1nc(S)nn1N)C(C#N)c1ccc(Cl)cc1)c1ccc(Cl)cc1 (stereo unspecified)
Result: inactive

Task: Kindly provide the recorded test outcome for the following compound: N#CC1CC(c2ccccc2)Nc2cc(Cl)ccc2N1 (stereo unspecified)
Result: inactive

Task: Kindly provide the recorded test outcome for the following compound: CNC(=O)OCc1c(COC(=O)NC)c(-c2ccc(-c3ccccc3)cc2)n(C)c1C
Result: inactive

Task: Kindly provide the recorded test outcome for the following compound: N#CC(C#N)c1ccc(C(=O)N2CCC[C@H]2CO)cc1
Result: inactive

Task: Kindly provide the recorded test outcome for the following compound: O=C1CC[N+]2=Cc3ccccc3O[B-]2(c2ccccc2)O1 (stereo unspecified)
Result: inactive

Task: Kindly provide the recorded test outcome for the following compound: N#Cc1ccc(C(C2C(=O)NC(=O)NC2=O)C2C(=O)NC(=O)NC2=O)cc1
Result: inactive

Task: Kindly provide the recorded test outcome for the following compound: CSc1nc(NC2OC(COC(C)=O)C(OC(C)=O)C(OC(C)=O)C2OC(C)=O)c(/N=C\C=N/c2c(NC3OC(COC(C)=O)C(OC(C)=O)C(OC(C)=O)C3OC(C)=O)nc(SC)n(C)c2=O)c(=O)n1C (stereo unspecified)
Result: inactive

Task: Kindly provide the recorded test outcome for the following compound: N#C/C(=C\NC(=S)Nc1ccc(S(=O)(=O)Nc2ccccn2)cc1)C(N)=O
Result: inactive

Task: Kindly provide the recorded test outcome for the following compound: O=C1C(=O)N(c2ccc(Cl)cc2)C(=O)C(=O)C1c1nc2ccccc2s1
Result: inactive

Task: Kindly provide the recorded test outcome for the following compound: Cn1c(-c2cccs2)cc(-c2cccs2)c1-c1ccco1
Result: inactive

Task: Kindly provide the recorded test outcome for the following compound: COC1(OC)N=C(N)C2(C#N)C3(C(=O)N(C(C)C)N=C3C)C12C#N (stereo unspecified)
Result: inactive

Task: Kindly provide the recorded test outcome for the following compound: C[C@@]1(O)C[C@@H](N2C(=O)O[C@@H](c3ccccc3)[C@H]2c2ccccc2)[C@@H]1COCc1ccccc1
Result: inactive

Task: Kindly provide the recorded test outcome for the following compound: CCCCCCCCOC(=O)C12Oc3ccc(-c4ccc5c(c4O)C(=O)C4=C(O)CC(C)C(O)C4(C(=O)OCCCCCCCC)O5)c(O)c3C(=O)C1=C(O)CC(C)C2O (stereo unspecified)
Result: inactive

Task: Kindly provide the recorded test outcome for the following compound: Cc1ccc2c(=O)cc(-c3cccc(F)c3)[nH]c2n1
Result: active

Task: Kindly provide the recorded test outcome for the following compound: CCOC(=O)c1cn(CC)c(=O)n2c1nc1ccccc12
Result: inactive

Task: Kindly provide the recorded test outcome for the following compound: C=C1CC[C@@]2(OC1)OC1C[C@H]3[C@@H]4CC=C5C[C@@H](O)CC(OC6OCC(OC(=O)[C@@H](O)[C@@H](C)CC)C(OC(C)=O)C6OC6OC(C)C(O)C(O)C6O)[C@]5(C)[C@H]4CC[C@]3(C)C1[C@@H]2C (stereo partly specified)
Result: inactive

Task: Kindly provide the recorded test outcome for the following compound: O=C1C(c2ccccc2)=C(c2ccccc2)[C@H](c2ccccc2)[C@]1(Cc1nnn(-c2ccc([N+](=O)[O-])cc2)c1N1CCOCC1)c1ccccc1
Result: active

Task: Kindly provide the recorded test outcome for the following compound: COc1ccc(/C=N\N2C(=O)Cc3ccccc32)cc1
Result: inactive
